Target: T1, murine CD300F stably expressed on Jurkat cells (mouse, UniProt Q6SJQ7 20-337)
T1 construct: also called muCD300F
T1 sequence: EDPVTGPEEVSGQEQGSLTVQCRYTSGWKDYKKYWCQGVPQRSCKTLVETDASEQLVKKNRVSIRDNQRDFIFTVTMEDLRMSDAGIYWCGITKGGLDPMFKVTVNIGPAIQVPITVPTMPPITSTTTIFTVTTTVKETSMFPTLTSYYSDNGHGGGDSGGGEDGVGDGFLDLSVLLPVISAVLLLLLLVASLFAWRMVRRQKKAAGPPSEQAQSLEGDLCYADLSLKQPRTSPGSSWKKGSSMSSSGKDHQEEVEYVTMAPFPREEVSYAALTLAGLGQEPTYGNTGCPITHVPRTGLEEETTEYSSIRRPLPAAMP
Test: flow cytometry, stable Jurkat cells, 10 ug/mL, isotype subtracted
REPORTED METRIC: gMFI (gMFI)
Answer with a number only, understood to be in gMFI.

stdin: # get_value(readout='gMFI', item= anti-CD300LB antibody CD-12 (antibody, V domains shown) VH: QIQLVQSGPELKKPGETVKISCKASGYTFTDYSMHWVRQAPGKGLKWMAWINTETGEATHADDFKGRFDFSLDTSASTAYLQIKNLKNEDTGIYFCVCYGSSYGMDYWGQGTSVTVSS VL: DIVLTQSPASLPVSLGQRATISCRASKSVRTSGASYMHWYQQKPGQPPKLLIYLASNLKSGVPTRFSGSGSGTDFTLNIHPVEEEDAATYYCQHNREVPPTFGGGTKLEIK )
stdout: 2.1

stdin: What value of gMFI has been recorded for this entry: anti-CD300LB antibody CD-17 (antibody, V domains shown) VH: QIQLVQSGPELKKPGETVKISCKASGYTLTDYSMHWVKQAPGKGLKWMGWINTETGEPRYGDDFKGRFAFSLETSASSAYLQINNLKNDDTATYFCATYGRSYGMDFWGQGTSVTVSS VL: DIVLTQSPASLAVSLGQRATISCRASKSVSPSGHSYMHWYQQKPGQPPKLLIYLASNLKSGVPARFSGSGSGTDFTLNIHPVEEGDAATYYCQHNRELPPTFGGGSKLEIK
stdout: 1.7

stdin: # query: gMFI of entry anti-CD300LB antibody CD-15 (antibody, V domains shown) VH: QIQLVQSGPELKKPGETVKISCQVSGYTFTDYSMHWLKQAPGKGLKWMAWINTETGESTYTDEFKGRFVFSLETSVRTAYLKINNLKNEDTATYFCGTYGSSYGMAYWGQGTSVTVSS VL: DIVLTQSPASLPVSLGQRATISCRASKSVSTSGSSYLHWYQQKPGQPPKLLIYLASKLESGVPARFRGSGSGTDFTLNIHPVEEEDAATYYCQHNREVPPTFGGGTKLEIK
stdout: 1.85
